Attribution: paper PMC9482650

# tgt: DLG1_3, Q12959
# Sequence (Q12959 457-571): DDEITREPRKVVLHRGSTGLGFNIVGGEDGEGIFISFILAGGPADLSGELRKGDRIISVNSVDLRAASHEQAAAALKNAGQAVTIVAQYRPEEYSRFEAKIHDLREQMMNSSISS
# assay: holdup assay
# Design: key: below the threshold = too weak to quantify, mostly under pKd 3.1 to 4
# conditions: plain residues with an end cap or a label only (N-terminal biotin on a linker: ado-ado)
reportedEndpoint: pKd

# input Given SPDRDRESIV [SCN5A, Q14524] , state its recorded pKd.
# output below the threshold

# input Given DGVNEKVSCV [HTR2A, P28223] , state its recorded pKd.
# output below the threshold

# input Given PPGKHLVTEV [KCNA7, Q96RP8] , state its recorded pKd.
# output 4.09

# input Given ARESQKVSHV [FAM110B, Q8TC76] , state its recorded pKd.
# output below the threshold

***
# input Given QSYPSKHDYV [CLDN18, P56856] , state its recorded pKd.
# output 3.49

# input Given KRPEMTSSSV [MUC3A, MUC3B, Q02505;Q9H195] , state its recorded pKd.
# output below the threshold

# input Given PSHPRLQTHV [KIRREL2, Q6UWL6] , state its recorded pKd.
# output below the threshold

# input Given QLSFNTDTLC [ABCA2, Q9BZC7] , state its recorded pKd.
# output below the threshold
